Test: BET inhibitor-based combinations targeting novel dependencies in MECOM-rearranged (r) AML: UCSD-AML1 cell line (AID 2202235); further: nearly all actives have a fitted effect of over 40% in size; further: potency means the concentration at half of the fitted maximal effect
Details: UCSD-AML1 AML cells viability, CellTiter-Glo, 48 h; series mostly up to 46 µM
Results filed as inconclusive are left out. Calls of active or inactive are those of the source. The call rests on the fitted dose curve; in most records, active means well fitted inhibition curve with a large enough effect; inconclusive means small, poorly fitted or top-dose-only effect; inactive means no such curve, though single readings can be large or run the other way.
Observation type: Potency

# example entries with known answers
[
  {
    "Chemical smiles": "CN1C(=O)[C@@H](NC(=O)c2n[nH]c(Cc3ccccc3)n2)COc2ccccc21",
    "Observation type": "Potency",
    "Observed": "inactive"
  },
  {
    "Chemical smiles": "N#Cc1ccc(Cn2cncc2CN2CCN(c3cccc(Cl)c3)C(=O)C2)cc1",
    "Observation type": "Potency",
    "Observed": "3.72 µM (active)"
  },
  {
    "Chemical smiles": "O=C(O)C1=CO[C@@H](O[C@@H]2O[C@H](CO)[C@@H](O)[C@H](O)[C@H]2O)[C@@H]2C(CO)=CC[C@H]12",
    "Observation type": "Potency",
    "Observed": "inactive"
  },
  {
    "Chemical smiles": "CCN(CC)CCNc1ccc(C)c2sc3ccccc3c(=O)c12",
    "Observation type": "Potency",
    "Observed": "16.6 µM (active)"
  },
  {
    "Chemical smiles": "CN(C)CCNC(=O)NC[C@H]1CC[C@@H]2[C@H](O1)c1cc(C(F)(F)F)ccc1N[C@H]2c1ccccc1",
    "Observation type": "Potency",
    "Observed": "0.235 µM (active)"
  },
  {
    "Chemical smiles": "CC[C@H]1OC(=O)[C@H](C)[C@@H](O[C@H]2C[C@@](C)(OC)[C@@H](O)[C@H](C)O2)[C@H](C)[C@@H](O[C@@H]2O[C@H](C)C[C@H](N(C)C)[C@H]2O)[C@](C)(O)C[C@@H](C)C(=O)[C@H](C)[C@@H](O)[C@]1(C)O",
    "Observation type": "Potency",
    "Observed": "inactive"
  },
  {
    "Chemical smiles": "CONC(=O)Nc1ccc(-c2sc3c(c2CN(C)C)c(=O)n(-c2ccc(OC)nn2)c(=O)n3Cc2c(F)cccc2F)cc1",
    "Observation type": "Potency",
    "Observed": "inactive"
  },
  {
    "Chemical smiles": "CC/C(=C(/CC)c1ccc(O)cc1)c1ccc(O)cc1",
    "Observation type": "Potency",
    "Observed": "inactive"
  }
]

Req: Which Potency is listed for "Cc1ccc(NC(=O)[C@H]2CCCN(C(=O)c3c(C)cccc3F)[C@H]2c2ccc(NC3CCCC3)cc2)cc1C(F)(F)F" ?
Resp: inactive
